System: U251 CNS
MEASURED ENDPOINT: GI50

> print(dat)
                                   compound  recorded.result
1  CCCC(=O)Nc1ncnc2c1ncn2C1OC2COP(=O)(O)OC2C1OC(=O)CCC (centres undefined)        > 1000 µM
2       COc1ccc2cc(C(=O)/C=C/c3ccco3)ccc2c1          28.5 µM
3  C=CCCC(O)c1ccc(CCCCCCCCCCC)o1 (centres undefined)          17.5 µM
4      O=C1C(Cl)=C(Nc2ccccn2)C(=O)c2ccccc21          3.24 µM

====

TGI overview
Test system: M19-MEL melanoma
Experiment: NCI tumour cell line growth inhibition, 48 h
MEASURED ENDPOINT: TGI

> print(dat)
                                    molecule  recorded.result
 1  CC1OC(n2cc(I)c(=O)[nH]c2=O)C=CC1=O (stereo not given)          30.6 µM
 2  COc1ccc(NC(=O)CC(=O)n2nc(-c3ccccc3)c(N=Nc3ccccc3C)c2-c2ccccc2)cc1         > 100 µM
 3  O=C(CC(=O)c1cccc([N+](=O)[O-])c1)C(=O)Nc1nc([N+](=O)[O-])cs1         > 100 µM
 4           Clc1ccc2c(Cl)nc(-c3ccccc3)nc2c1         > 100 µM
 5            O=c1nc(-c2ccccc2)scc1-c1ccccc1         > 100 µM
 6  CCC[CH2][Ge]([CH2]CCC)([CH2]CCC)[O]C(=O)C(OC(C)=O)c1ccccc1 (stereo not given)          20.3 µM
 7  Cc1ccc(C(O)/C(=N/N)c2nc3ccc([N+](=O)[O-])cc3[nH]c2=O)cc1 (stereo not given)         > 100 µM
 8  CCN1C(=O)C(N=[N+]=[N-])(c2ccccc2)C(=O)c2ccccc21 (stereo not given)         > 100 µM
 9     COc1cc(O)c2c(c1O)C(=O)c1cc(C)ncc1C2=O          23.8 µM
10       CCOP(=O)(OCC)/C(C#N)=C/c1cc(O)ccc1O         > 100 µM

====

System: HOP-92 NSCLC
Assay: NCI tumour cell line growth inhibition, 48 h
1.0 means recorded TGI is 50 µM or above; 0.0 means it is below 50 µM.

> print(dat)
                                   compound  experimental.target  class.label
1  O=[N+]([O-])c1cc([N+](=O)[O-])c(C(Cl)C(Cl)c2ccccc2)cc1C(Cl)C(Cl)c1ccccc1 (centres undefined)         HOP-92 NSCLC          0.0
2  O=C1Cc2c(-c3ccccc3)cc(-c3ccc4ccccc4c3)nc2-c2ccccc2N1         HOP-92 NSCLC          1.0
3  CCN(CC)c1nc(=O)c(C(=O)C(C)(C)C)c(C(C)(C)C)o1         HOP-92 NSCLC          1.0
4  CCCC(=O)[O-].CCCC(=O)[O-].N.N.N.N.[Co+3].[O-][Cl+3]([O-])([O-])[O-]         HOP-92 NSCLC          1.0
5  CC(=O)O[C@H]1CC[C@@]2(C)C(=CC[C@H]3[C@@H]4C/C(=C\c5ccncc5)[C@H](OC(C)=O)[C@@]4(C)CC[C@@H]32)C1         HOP-92 NSCLC          0.0
6  CSC1CC2C(CC1(C)SC)C2(C)C (centres undefined)         HOP-92 NSCLC          1.0
7  C=CCN1C[C@@H](C)N([C@@H](c2ccccc2)c2ccc(C(=O)N(CC)CC)cc2)C[C@@H]1C         HOP-92 NSCLC          1.0
8  Cc1cc(=O)[nH]c(NN2C(Cl)C(=O)C2c2c(O)ccc3ccccc23)n1 (centres undefined)         HOP-92 NSCLC          0.0
